System: SK-MEL-2
measurement_description: NCI tumour cell line growth inhibition, 48 h
Calls of active or inactive are those of the source. Cut-off read from the data, not from the text of the source: active = GI50 up to about 1.1 µM and inactive = higher. Residues, ends and D or L forms follow the SMILES beside them.
# maps each entry to its GI50

Consider the following illustrative entries.
// query Provide only the value of recorded GI50 for CCC(C)C(NC(=O)C1CCCN1)C(=O)NC(C(=O)NCC(=O)NC(CC(N)=O)C(=O)NC(CC(C)C)C(=O)NC(CC(C)C)C(=O)NC(CCCCN)C(N)=O)C(C)C (centres undefined) (H-PIVGNLLK-NH2; configuration not given here)
// result > 75 µM (inactive)

// query Given the compound [O-][Cl+3]([O-])([O-])[O-].c1ccc(-c2csc3c4ccccc4c4ccccc4[n+]23)cc1 , write its reported GI50.
// result 2.54 µM (inactive)

// query // Input: CCSC(=O)/C=C1\CN(C(=O)OC(C)(C)C)C1C(=O)OC(C)(C)C (centres undefined) . Output its GI50 only.
// result 6.59 µM (inactive)

Continuing:
// query Return value of GI50 for input FC(F)(F)c1ccc2nc(Nc3ccc(Cl)c(Cl)c3)c(-c3ccccc3)nc2c1 , no commentary.
// result > 100 µM (inactive)

Data credit: ChEMBL document CHEMBL1201862
